src = patent US20260193366A1

Collected Relative Blockade of IL-13 Binding IC50 values appear next to each entry.
Experimental system: T1, hIL-4Rα on cells (human, UniProt P24394 26-825)
T1 sequence: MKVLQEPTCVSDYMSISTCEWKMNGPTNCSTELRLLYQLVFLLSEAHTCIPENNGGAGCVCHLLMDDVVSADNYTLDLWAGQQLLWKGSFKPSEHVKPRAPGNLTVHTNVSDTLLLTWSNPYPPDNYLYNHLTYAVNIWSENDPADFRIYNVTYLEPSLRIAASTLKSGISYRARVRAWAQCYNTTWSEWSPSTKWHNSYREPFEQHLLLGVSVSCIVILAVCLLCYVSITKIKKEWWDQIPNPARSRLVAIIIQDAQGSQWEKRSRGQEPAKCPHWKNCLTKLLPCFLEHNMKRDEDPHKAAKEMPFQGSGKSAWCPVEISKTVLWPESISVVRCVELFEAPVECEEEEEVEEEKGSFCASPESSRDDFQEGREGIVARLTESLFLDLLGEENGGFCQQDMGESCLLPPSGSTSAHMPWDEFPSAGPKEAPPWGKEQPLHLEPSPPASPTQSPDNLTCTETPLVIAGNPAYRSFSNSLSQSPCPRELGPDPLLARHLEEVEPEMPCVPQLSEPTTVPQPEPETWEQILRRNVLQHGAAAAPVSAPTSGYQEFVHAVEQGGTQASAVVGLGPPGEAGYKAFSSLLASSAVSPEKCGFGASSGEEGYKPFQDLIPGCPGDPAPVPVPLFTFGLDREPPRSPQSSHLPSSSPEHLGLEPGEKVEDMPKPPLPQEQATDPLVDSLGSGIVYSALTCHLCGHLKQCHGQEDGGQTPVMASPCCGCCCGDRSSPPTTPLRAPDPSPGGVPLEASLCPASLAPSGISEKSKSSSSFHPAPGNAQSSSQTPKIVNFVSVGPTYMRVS
Assay text: FACS on HEK293 cells, competitor biotin-hIL-13;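 further: stably transduced cells co-expressing both receptor chains, stained cold, with cell-bound signal read as mean fluorescence intensity by flow cytometry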

{"Binder": "Construct 8 (mAb417) (antibody, IgG4, V domains shown, VH/VL only) VH: EVQLVESGGGLEQPGGSLRLSCAGSGFTFRDFAMTWVRQAPGKGLEWVSSISGSGDNIYYADSVKGRFTISRDNSKNTLYLQMNSLRAEDTAVYYCAKDRLSVTVRPRYYGLDVWGQGTTVTVSS VL: DIVMTQSPLSLPVTPGEPASISCRSTQSLLYSIGKNYVDWYLQKSGQSPQLLIYLGNNRATGVPDRFSGSGSGTDFTLKISRVEAEDVGFYYCMQALTTPYAFGQGTKLEIK", "Relative Blockade of IL-13 Binding IC50": "0.953 relative to dupilumab"}
{"Binder": "Construct 21 (mAb429) (antibody, IgG4, V domains shown, VH/VL only) VH: EVQLVESGGGLEQPGGSLRLSCAGSGFTFRTYAMTWVRQAPGKGLEWVSSISGSGGNIYYADSVKGRFTISRDNSKNTLYLQMNSLRAEDTAVYYCAKDRVSIYVRPRYYGLDVWGQGTTVTVSS VL: DIVMTQSPLSLPVTPGEPASISCTASQSLLYSIGYNYVDWYLQKSGQSPQLLIYLGSKRASGVPDRFSGSGSGTDFTLKISRVEAEDVGFYYCMQSLTSPYTFGQGTKLEIK", "Relative Blockade of IL-13 Binding IC50": "0.706 relative to dupilumab"}
{"Binder": "Construct 45 (mAb494) (antibody, IgG4, V domains shown, VH/VL only) VH: EVQLVESGGGLEQPGGSLRLSCAGSGFTFRDFAMTWVRQAPGKGLEWVSSISGSGDGTYYADSVKGRFTISRDNSKNTLYLQMNSLRAEDTAVYYCAKDRVSITIRPRYYGLDVWGQGTTVTVSS VL: DIVMTQSPLSLPVTPGEPASISCTASQSLLYSIGYNYVDWYLQKSGQSPQLLIYLGNNRATGVPDRFSGSGSGTDFTLKISRVEAEDVGFYYCMQSLQTPYTFGQGTKLEIK", "Relative Blockade of IL-13 Binding IC50": "1.01 relative to dupilumab"}
